MIC values for the molecules below.
- Tested on: S. pneumoniae IP692
- TEST DETAILS: Antibacterial activity (MIC), agar plate dilution method
- Assay type: cell-based
- CONDITION NOTES: Streptococcus pneumoniae, 37° C., 20 hours, blood agar seed culture
PROPERTY LABEL: MIC (µg/mL)

SMILES INPUT	ASSAYED SYSTEM	ENDPOINT UNIT	REPORTED VALUE
CCCCO[C@H]1[C@H](C)O[C@@H](O[C@H]2[C@H](N(C)C)[C@@H](O)[C@H](O[C@H]3[C@@H](CC=O)C[C@@H](C)C(=O)/C=C/C=C/C[C@@H](C)OC(=O)C[C@@H](OC(=O)CC)[C@@H]3OC)O[C@@H]2C)C[C@@]1(C)OC	S. pneumoniae IP692	µg/mL	0.1
C=CCO[C@H]1[C@H](C)O[C@@H](O[C@H]2[C@H](N(C)C)[C@@H](O)[C@H](O[C@H]3[C@@H](CC=O)C[C@@H](C)C(=O)/C=C/C=C/C[C@@H](C)OC(=O)C[C@@H](OC(=O)CC)[C@@H]3OC)O[C@@H]2C)C[C@@]1(C)OC	S. pneumoniae IP692	µg/mL	1.56
CCC(=O)O[C@@H]1CC(=O)O[C@H](C)C/C=C/C=C/C(=O)[C@H](C)C[C@H](CC=O)[C@H](O[C@@H]2O[C@H](C)[C@@H](O[C@H]3C[C@@](C)(OC)[C@@H](OCc4ccccc4)[C@H](C)O3)[C@H](N(C)C)[C@H]2O)[C@H]1OC	S. pneumoniae IP692	µg/mL	0.2
CCC(=O)O[C@@H]1CC(=O)O[C@H](C)C/C=C/C=C/C(=O)[C@H](C)C[C@H](CC=O)[C@H](O[C@@H]2O[C@H](C)[C@@H](O[C@H]3C[C@@](C)(OC)[C@@H](OCC=C(C)C)[C@H](C)O3)[C@H](N(C)C)[C@H]2O)[C@H]1OC	S. pneumoniae IP692	µg/mL	0.39
CCO[C@H]1[C@H](C)O[C@@H](O[C@H]2[C@H](N(C)C)[C@@H](O)[C@H](O[C@H]3[C@@H](CC=O)C[C@@H](C)C(=O)/C=C/C=C/C[C@@H](C)OC(=O)C[C@@H](OC(=O)CC)[C@@H]3OC)O[C@@H]2C)C[C@@]1(C)OC	S. pneumoniae IP692	µg/mL	1.56
